Data origin, for the record: PubChem BioAssay (NCI)

Recorded growth inhibition by entry
assay.explanation: NCI Yeast Anticancer Drug Screen. Data for the wt1 strain (AID 149);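 further: 0% = growth of vehicle-treated wt1 cultures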
test.context: S. cerevisiae wt1 strain (SPY 50644) growth inhibition; at 3.7 µM; active compounds read high
Experimental: Growth inhibition of yeast strains with defined genetic alterations is measured as a screen for potential anti-cancer activity. Selected strains with alterations in DNA damage repair or cell cycle control were exposed to compounds and growth inhibition was measured relative to vehicle treated controls. The strain used in this assay is wt1
About 79,000 compounds went through this panel and 15% of them were active in at least one assay; those are over-represented in the sample as a whole.
Number only, in %; omit the unit.

N#CN=Nc1cc(Cl)c(N=NC#N)cc1Cl	-5
CCCCCCCCCCCC1=C(O)C(=O)C=C(O)C1=O	-7
Cc1c(C(=O)C(=O)c2ccccc2)c(C)c(C(=O)C(=O)c2ccccc2)c(C)c1C(=O)C(=O)c1ccccc1	1
[O-][n+]1c2ccc(O)cc2nc2ccc(Cl)cc21	9
Nc1ncncc1C(C1=C(O)COC1=O)C1=C(O)COC1=O	4

Field: next compound
In: Which measured growth inhibition value corresponds to C/C(=N\NC(=S)N1CCCCC1)c1cccc(C)n1 ?
Out: 95

###

assay.explanation: NCI Yeast Anticancer Drug Screen. Data for the rad18 strain (AID 177)
test.context: S. cerevisiae rad18 mutant growth inhibition; at 1.2 µM; active compounds read high
This is part of a sample that, as a whole, favours compounds with a hit. Of some 79,000 tested, about 15% had one in any assay.
quantity: growth inhibition (%)
Number only, in %; omit the unit.

Solved entries:
C[C@@H]1C[C@H]2[C@@H]3CCC4=CC(=O)C=C[C@]4(C)[C@@]3(Cl)[C@@H](Cl)C[C@]2(C)[C@@]1(O)C(=O)COP(=O)(O)O	-4
O=[N+]([O-])C(=C(Sc1ccccc1)Sc1ccccc1)C(Cl)=C(Cl)Cl	15
O=C(Nc1ccc(Cl)cc1)OCC#CCCl	-5

In: Which measured growth inhibition value corresponds to O=C1c2ccccc2C(=O)c2c(NC3CCCCC3)ccc(Nc3ccc(S(=O)(=O)O)cc3)c21 ?
Out: -2

In: Likewise for O=C1c2ccccc2C(=O)c2cc(CBr)ccc21 ?
Out: 2

###

assay.explanation: NCI Yeast Anticancer Drug Screen. Data for the rad50 strain (AID 155);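 further: 0% = growth of vehicle-only cultures of the same strain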
test.context: S. cerevisiae rad50 strain growth inhibition; at 50.0 µM; active compounds read high
Compounds without any hit were thinned out: in the full panel of roughly 79,000, 15% have a hit.
quantity: growth inhibition (%)
Number only, in %; omit the unit.

Solved entries:
CC1(Cl)CC(O)C2(CC1Br)C1(C)OC1C1OC1(Br)C2(C)C (stereo unspecified)	62.6
CCN(CC)C(=S)N/N=C(/C)c1cccc(/C(C)=N\NC(=S)N(CC)CC)n1	55.5
CCC/C(Cl)=N\OC(=O)Nc1cccc(C(F)(F)F)c1	87.1
CCS(=O)(=O)c1ccc(/C=C/C=N/NC(=S)NCC(C)C)cc1	0.25
CC(Br)C(=O)c1ccc2cc(Br)c3ccccc3c2c1 (stereo unspecified)	63.7
O=C1C=CC(=O)N1c1ccc2c(c1)Cc1cc(NC(=O)C(F)(F)F)ccc1-2	87.7
COc1cccc2nc3ccccc3nc12	83.6
S=C(Nc1ccc(Cl)cc1)SC1CCCCC1	83.2

In: Which measured growth inhibition value corresponds to CN(C)c1ccc(C(C#N)=C(C#N)C#N)cc1 ?
Out: 88.2

In: Likewise for Oc1ccc2ccccc2c1C(c1ccc(Cl)cc1)c1c(O)ccc2ccccc12 ?
Out: 68.3

In: Likewise for CN(C)Cc1cc(N=Nc2ccc(Cl)cc2)cc(CN(C)C)c1O ?
Out: 56.8

###

assay.explanation: NCI Yeast Anticancer Drug Screen. Data for the wt1 strain (AID 149);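 further: 0% = growth of vehicle-treated wt1 cultures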
test.context: S. cerevisiae wt1 strain (SPY 50644) growth inhibition; at 3.7 µM; active compounds read high
The panel holds about 79,000 compounds, 15% with a hit somewhere; the sample as a whole holds those more often.
quantity: growth inhibition (%)
Number only, in %; omit the unit.

COc1cc(C2C3=C(COC3=O)Oc3cc4c(cc32)OCO4)ccc1O (stereo not given)	-7
Cc1cc(I)ccc1N	2
Cc1c(Cl)ccc2c1S(=O)(=O)c1cccc(Cl)c1-2	-2

In: Which measured growth inhibition value corresponds to CCCCCCCCCCC(=O)Cl ?
Out: -2

In: Likewise for CSc1nc(=S)[nH]c2c1c(C)nn2-c1ccccc1 ?
Out: -2

In: Likewise for CC(=O)Oc1ccc2c(c1)Cc1cc(N=C3C=CC(=O)O3)ccc1-2 ?
Out: 24

In: Likewise for COc1cc2c3c(cccc3c1)C(=O)N(CCN(C)C)C2=O ?
Out: -11

In: Likewise for CC(=O)SCCC[Si](C)(C)CCCSC(C)=O ?
Out: -5

In: Likewise for Cc1[nH]c2ccccc2c1C(c1ccc(N)cc1)c1c(C)[nH]c2ccccc12 ?
Out: -1

In: Likewise for Cc1cc(CO)c(O)c(CNCc2cc(C)cc(CO)c2O)c1 ?
Out: 15

###

assay.explanation: NCI Yeast Anticancer Drug Screen. Data for the mgt1 strain (AID 153)
test.context: S. cerevisiae mgt1 mutant growth inhibition; at 3.7 µM; active compounds read high
This is part of a sample that, as a whole, favours compounds with a hit. Of some 79,000 tested, about 15% had one in any assay.
Recorded growth inhibition by entry
Number only, in %; omit the unit.

Solved entries:
NC(=S)N/N=C\c1nccc2ccccc12	-6
Oc1ccc(NCn2c(=S)sc3ccccc32)cc1	17
O=C(CC(=O)n1nc(-c2ccccc2)c(N=Nc2ccccc2C(=O)O)c1-c1ccccc1)Nc1ccc(Cl)cc1	-3

In: Which measured growth inhibition value corresponds to BrCC[P+](c1ccccc1)(c1ccccc1)c1ccccc1 ?
Out: -53

In: Likewise for COC(=O)CSSCc1ccc([N+](=O)[O-])cc1 ?
Out: 1

In: Likewise for Cc1nc(-c2ccccc2)c(-c2ccccc2)s1 ?
Out: 8

In: Likewise for O=C(O)CNc1ccc(Cl)c(Cl)c1 ?
Out: -4

In: Likewise for CC(=O)[O][Bi]([c]1ccccc1)[c]1ccccc1 ?
Out: 30

In: Likewise for CO[C@H]1C[C@](C)(O)Cc2cc3c(c(O)c21)C(=O)c1c(O)cc2c(c1C3=O)O[C@@H]1O[C@@]2(C)[C@H](O)[C@@H](N(C)C)[C@@H]1O ?
Out: -23

###

assay.explanation: NCI Yeast Anticancer Drug Screen. Data for the rad18 strain (AID 177)
test.context: S. cerevisiae rad18 mutant growth inhibition; at 11.0 µM; active compounds read high
The panel holds about 79,000 compounds, 15% with a hit somewhere; the sample as a whole holds those more often.
Recorded growth inhibition by entry
Number only, in %; omit the unit.

Solved entries:
S=c1[nH]nc(Nc2ccc(Cl)cc2)s1	-4
CCCCCCCCCCCC1=C(O)C(=O)C=C(O)C1=O	64
C#CCCCc1ccccc1	-58
O=C1Nc2ccccc2/C1=C/COc1ccccc1	16
COC1C=COC2(C)Oc3c(C)c(O)c4c(c3C2=O)/C(=N/C2CCC(O)OC2C)C=C(NC(=O)/C(C)=C\C(=O)C2CC2C(O)C(C)C(O)C(C)C(OC(C)=O)C1C)C4=O (configuration not stated)	-4

In: Which measured growth inhibition value corresponds to CCN(CC)CCC(=O)c1ccc(Oc2ccc(F)cc2)cc1 ?
Out: 27

In: Likewise for CC(=O)Cc1ccc[cH-]1.[Fe+2].c1cc[cH-]c1 ?
Out: 29

In: Likewise for CC(/C=C/c1ccc(Cl)cc1)=N\NC(=S)NCC(C)C ?
Out: -1

In: Likewise for O=CNc1ccc2c(c1)C(=O)c1ccccc1-2 ?
Out: 7

In: Likewise for O=C1C=CC(=C(c2ccccc2)c2ccccc2)c2ccccc21 ?
Out: 1

In: Likewise for Brc1ccc(-c2cc3c(cc2C2SCCS2)OCO3)cc1 ?
Out: -29

In: Likewise for Cc1ccc(S(=O)(=O)NCCSS(=O)(=O)c2ccc(C)cc2)cc1 ?
Out: 12

In: Likewise for COc1cc(C2c3cc4c(cc3OC(NNc3ccccc3)C2C)OCO4)cc(OC)c1OC (configuration not stated) ?
Out: 64

In: Likewise for CC(=O)Nc1ccc(SC(C)=O)cc1 ?
Out: -4

###

assay.explanation: NCI Yeast Anticancer Drug Screen. Data for the wt1 strain (AID 149);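 further: 0% = growth of vehicle-treated wt1 cultures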
test.context: S. cerevisiae wt1 strain (SPY 50644) growth inhibition; at 100.0 µM; active compounds read high
About 79,000 compounds went through this panel and 15% of them were active in at least one assay; those are over-represented in the sample as a whole.
quantity: growth inhibition (%)
Number only, in %; omit the unit.

COc1ccc2c(c1)C(=O)c1ccccc1C2	4
C/C(=N\O)C1CC2C=C(C#N)C1N(Cc1ccccc1)C2 (configuration not stated)	-1
CCCCCCCCCCCCCCCCCCNC	86
COc1ccc2sc3cccc(NCCN(C)C)c3c(=O)c2c1	10
[N-]=[N+]=NC1=C(c2ccccn2)C(=O)c2cccc3cccc1c23	34
CN1Cc2ccccc2/C=C\c2ccccc21	7
CC(=O)ON1C(=O)c2cccc3cccc(c23)C1=O	97
Cc1c(C2=C(Br)C(=O)N(C)C2=O)c(=O)n(C)c(=O)n1C	73
Cc1c(Cl)ccc2c1S(=O)(=O)c1cccc(Cl)c1-2	-1
CC(=O)OCC(=O)C1(O)CCC2C3CCC4CCCCC4(C)C3CCC21C (configuration not stated)	77

In: Which measured growth inhibition value corresponds to CCC(=O)OCCn1c2nc(=O)[nH]c(=O)c-2nc2cc(C)c(C)cc21 ?
Out: 11

In: Likewise for CCOC(=O)c1cnc2c(C(F)(F)F)cccc2c1N=[N+]=[N-] ?
Out: 87
